Answer each item with its documented solubility.
experiment: Compound solubility in water; format: physicochemical
Answers are plain numbers, in µg/mL.

Solved entries (count: 5):
[[record]]
molecule = "Cc1cc(C)n2ncc(C(=O)Nc3ccc4c(c3)CCC4)c2n1 [IV-5]"
units_label = "µg/mL"
measured = 0.5

[[record]]
molecule = "Cc1cc(Cl)n2ncc(C(=O)NC(C)(C)c3ccc(Cl)cc3)c2n1 [III-68]"
units_label = "µg/mL"
measured = 2.1

[[record]]
molecule = "Cc1cc(C)n2ncc(C(=O)N[C@@H](C)c3cccc(Cl)c3)c2n1 [III-63]"
units_label = "µg/mL"
measured = 11.9

[[record]]
molecule = "Cc1cc(C)n2ncc(C(=O)Nc3ccc4oc(-c5ccncc5)nc4c3)c2n1 [III-48]"
units_label = "µg/mL"
measured = 0.3

[[record]]
molecule = "C#Cc1ccc(NCc2cnn3c(C)cc(C)cc23)cc1 [III-74]"
units_label = "µg/mL"
measured = 0.2


// input: 2 molecules below; output: solubility for each
1. C#Cc1ccc(NC(=O)c2cnn3c(C)cc(NC)nc23)cc1 [III-77]
2. Cc1cc(C)n2ncc(C(=O)Nc3ccc4c(c3)C(C3=NCCN3)CCC4)c2n1 (stereo not drawn) [III-73]

[reply]
4.2
34

Provide each entry's solubility from the list below.
1. C#CC1CCC(NC(=O)c2cnn3c(C)cc(C)nc23)CC1 (stereo not drawn) [III-13]
2. CO[C@H]1CC[C@H](C(C)(C)NC(=O)c2cnn3c(C)cc(C)nc23)CC1 [III-71]
3. Cc1cc(C)n2ncc(C(=O)Nc3ccc(-c4cnn(C)c4)cc3)c2n1 [III-54]
4. Cc1cc(C)n2ncc(C(=O)Nc3ccc(-c4cocn4)nc3)c2n1 [III-19]
5. Cc1cc(C)n2ncc(C(=O)Nc3ccc(C)c(-c4ncco4)c3)c2n1 [III-52]
6. Cc1cc(C)n2ncc(C(=O)Nc3ccc(Cl)c(COc4cccnc4)c3)c2n1 [III-51]

[reply]
1: 26; 2: 21.4; 3: 2.1; 4: 3; 5: 0.05; 6: 0.06

Could you tell me solubility for each of these molecules? They are listed below.
1. Cc1cc(C)n2ncc(C(=O)Nc3ccc4nc(C)sc4c3)c2n1 [III-50]
2. Cc1cc(C)n2ncc(C(=O)Nc3ccc4oncc4c3)c2n1 [III-47]
3. CO[C@H]1CC[C@@H](C(C)(C)NC(=O)c2cnn3c(C)cc(C)nc23)CC1 [III-72]
4. Cc1cc(C)n2ncc(C(=O)Nc3ccc4nc(C)[nH]c4c3)c2n1 [III-45]
5. Cc1cc(C)n2ncc(C(=O)NC3CCc4ccccc43)c2n1 (stereo not drawn) [III-79]

[reply]
[2.3, 0.9, 15.1, 1.2, 0.8]

====

assay: Compound solubility in water; assay type: physicochemical
Rule: solubility under 5 µg/mL gives f, otherwise t.

# count of solved cases: 5
[[record]]
item_smiles = "Cc1ccn2ncc(CNc3ccc(-c4ncco4)cc3)c2n1"
label = "t"

[[record]]
item_smiles = "Cc1cc(C)n2ncc(C(=O)Nc3ccc4nc(C)oc4c3)c2n1"
label = "f"

[[record]]
item_smiles = "Cc1cc(C)n2ncc(C(=O)Nc3ccc4c(c3)OCO4)c2n1"
label = "f"

[[record]]
item_smiles = "Cc1cc(C)n2ncc(C(=O)Nc3ccc(-c4cc[nH]n4)cc3)c2n1"
label = "t"

[[record]]
item_smiles = "Cc1cc(C)n2ncc(C(=O)Nc3ccc4cn[nH]c4c3)c2n1"
label = "f"


Now examine the next entry.
[ask] Say whether Cc1cc(C)n2ncc(C(=O)Nc3ccc(-c4cocn4)cc3)c2n1 shows solubility of 5 µg/mL or more.
[reply] f

====

test: Compound solubility in water; format: physicochemical
property-name: solubility (µg/mL)
Numbers only, in µg/mL.

// solved cases for solubility follow
[[record]]
compound = "COc1ccccc1[C@@H](C)NC(=O)c1cnn2c(C)cc(C)nc12"
property_name = "solubility"
measured = 2.5

[[record]]
compound = "Cc1cc(C)n2ncc(C(=O)Nc3ccc4c(c3)CCNC4)c2n1"
property_name = "solubility"
measured = 33.4

[[record]]
compound = "Cc1cc(C)n2ncc(C(=O)N[C@H](C)c3ccc(F)cc3)c2n1"
property_name = "solubility"
measured = 27.6

[[record]]
compound = "Cc1cc(C)n2ncc(C(=O)NC(C)C3CCC(F)(F)CC3)c2n1 (centres unmarked)"
property_name = "solubility"
measured = 20.6

[[record]]
compound = "Cc1cc(C)n2ncc(C(=O)Nc3ccc4[nH]c(-c5ccco5)nc4c3)c2n1"
property_name = "solubility"
measured = 0.4


Please state solubility for every compound in the list that follows.
1. Cc1cc(C)n2ncc(C(=O)N[C@H](C)c3ccc(Cl)cc3)c2n1
2. Cc1cc(C)n2ncc(CNc3ccc(-c4cocn4)cc3)c2n1
3. C#C[C@H]1CC[C@H](NC(=O)c2cnn3c(C)cc(C)nc23)CC1
4. Cc1cc(C)n2ncc(C(=O)NC(C)(C)c3ccc(F)cc3F)c2n1
5. CCCCCO[C@H]1CC[C@H](NC(=O)c2cnn3c(C)cc(C)nc23)CC1
6. COCC#Cc1ccc(NCc2cnn3c(C)cc(C)nc23)cc1

[reply]
[0.7, 26.1, 17.6, 2, 7.1, 5.4]

====

test: Compound solubility in water; format: physicochemical
property-name: log10(solubility) (log10 of the value in µg/mL)
Please be aware that the numbers have been log10-transformed from solubility in µg/mL.

Example molecules with recorded log10(solubility):
[[record]]
molecule = "Cc1cc(C)n2ncc(C(=O)Nc3ccc4[nH]ncc4c3)c2n1"
property_name = "log10(solubility)"
measured = -0.30

[[record]]
molecule = "Cc1cc(C)n2ncc(C(=O)Nc3ccc(Cl)c(C(C)Oc4cccnc4)c3)c2n1 (stereo not shown)"
property_name = "log10(solubility)"
measured = -1.00

[[record]]
molecule = "Cc1cc(C)n2ncc(C(=O)Nc3ccc(CCC(=O)O)cc3)c2n1"
property_name = "log10(solubility)"
measured = 1.78


Give log10(solubility) for each listed item.
1. Cc1cc(C)n2ncc(C(=O)Nc3ccc(C(C)O)cc3)c2n1 (stereo not shown)
2. Cc1cc(C)n2ncc(C(=O)Nc3cc(C4(C(F)(F)F)CC4)on3)c2n1

[reply]
1: 1.00; 2: 0.41

====

assay: Compound solubility in water; type: physicochemical
property-name: solubility

Example entries begin here.
[[record]]
molecule = "Cc1cc(C)n2ncc(C(=O)Nc3ccc(-c4ncco4)cc3)c2n1"
measured = "< 1.5 µg/mL"

[[record]]
molecule = "Cc1cc(C)n2ncc(C(=O)Nc3ccc(-c4nccs4)cc3)c2n1"
measured = "< 1.5 µg/mL"


Hey, can you go through the list below and give me solubility for every item?
1. Cc1cc(C)n2ncc(C(=O)Nc3ccc(-c4cnn(C)c4)nc3)c2n1
2. Cc1cc(C)n2ncc(C(=O)Nc3ccc(-n4ccnc4)cc3)c2n1
3. Cc1cc(C)n2ncc(C(=O)Nc3ccc(-c4ccon4)cc3)c2n1
4. Cc1cc(C)n2ncc(C(=O)Nc3ccc(N4CCCCC4)cc3)c2n1
5. C#CCOc1ccc(NC(=O)c2cnn3c(C)cc(C)nc23)cc1

[reply]
1. < 1.5 µg/mL
2. < 1.5 µg/mL
3. < 1.5 µg/mL
4. < 1.5 µg/mL
5. < 1.5 µg/mL

Hey, can you go through the list below and give me solubility for every item?
1. Cc1cc(C)n2ncc(C(=O)Nc3ccc(-c4cnsc4)cc3)c2n1
2. Cc1cc(C)n2ncc(C(=O)Nc3ccc(-c4cscn4)cc3)c2n1
3. C#Cc1ccc(NC(=O)c2cnn3c(C)cc(C)nc23)c(OC)c1
4. Cc1cc(C)n2ncc(C(=O)Nc3ccc(-c4ncc[nH]4)cc3)c2n1
5. Cc1cc(C)n2ncc(C(=O)N[C@@H](C)c3ccccc3F)c2n1
6. Cc1cc(C)n2ncc(C(=O)Nc3ccc4[nH]c(C)cc4c3)c2n1
7. COc1ccccc1[C@H](C)NC(=O)c1cnn2c(C)cc(C)nc12

[reply]
1. < 1.5 µg/mL
2. < 1.5 µg/mL
3. < 1.5 µg/mL
4. < 1.5 µg/mL
5. 7.2 µg/mL
6. 0.3 µg/mL
7. 1.4 µg/mL

// batch mode: one solubility value per listed entry
1. Cc1cc(C)n2ncc(C(=O)Nc3ccc(Oc4ccccc4)cc3)c2n1
2. Cc1cc(C)n2ncc(C(=O)Nc3ccc(Cl)c(-c4cnco4)c3)c2n1
3. C#Cc1ccc(NC(=O)c2cnn3c(NC)cc(C)nc23)cc1
4. Cc1cc(C)n2ncc(C(=O)Nc3ccc(-c4cnoc4)cc3)c2n1

[reply]
1. < 1.5 µg/mL
2. < 0.05 µg/mL
3. < 1.5 µg/mL
4. < 1.5 µg/mL

Report solubility for every entry below.
1. Cc1cc(C)n2ncc(C(=O)Nc3ccc(N=[N+]=[N-])cc3)c2n1
2. Cc1cc(Cl)nc2c(C(=O)NC(C)(C)c3ccc(Cl)cc3)cnn12

[reply]
1: < 1.5 µg/mL; 2: 5.1 µg/mL

[ask] May I ask what solubility has been recorded for Cc1cc(C)n2ncc(C(=O)NC3CCCc4ccccc43)c2n1 (stereo not drawn) ?
[reply] 2.6 µg/mL

Provenance of the data: patent US9732089B2
